Taken from patent US20220313701A1.

# SYSTEM_UNDER_TEST: full length human TREX1 (Homo sapiens)
# Construct: N-terminally His-Tev tagged full length human TREX1; His-Tev (His tag with TEV site) (N)
# Sequence (Q9NSU2 whole entry): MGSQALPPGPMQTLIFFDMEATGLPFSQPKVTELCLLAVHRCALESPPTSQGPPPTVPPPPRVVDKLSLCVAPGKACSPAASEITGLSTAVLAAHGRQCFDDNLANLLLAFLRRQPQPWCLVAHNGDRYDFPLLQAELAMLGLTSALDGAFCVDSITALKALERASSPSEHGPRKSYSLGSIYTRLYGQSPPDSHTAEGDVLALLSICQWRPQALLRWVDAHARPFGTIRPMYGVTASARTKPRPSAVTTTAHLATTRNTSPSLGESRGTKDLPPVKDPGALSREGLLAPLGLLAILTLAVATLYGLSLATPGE
# PROTOCOL_TEXT: TREX1 Biochemical Assay (fluorescence assay, degradation of dsDNA substrate)
# CONDITION_CONTEXT: 150 pM TREX1, 60 nM dsDNA substrate, 25 minutes at room temperature
pIC50: −log10 of the molar value.
Give pIC50 for every item shown.

Sample answers from the record:
INSERT INTO assay_data (smiles_notation, test_value) VALUES
  ('CN(C)CCCNC(=O)c1cncc(N2CCC(O)(c3ccc(F)cc3)CC2)n1', '< 5.00'),
  ('COc1ccccc1-c1cncc(N2CCC(O)(c3ccc(F)cc3)CC2)n1', '< 5.00'),
  ('Cc1nc(N2CCC(O)(c3ccc(F)c(F)c3)CC2)cc(-n2ccnc2-c2ccccn2)n1', '5.00 to 6.00'),
  ('O=C(NCCc1ccccc1)c1cncc(N2CCC(O)(c3ccc(F)cc3)CC2)n1', '5.00 to 6.00');

Then this compound:
So, `Cc1nn(C)cc1-c1cc(C(N)=O)cc(N2CCC(O)(c3ccc(F)c(Cl)c3)CC2)n1` ? Its pIC50 was 6.00 to 7.00
